Collected IC50 values appear next to each entry.
test system: RAW264.7; test: Inhibition of RANKL-induced osteoclastogenesis in mouse RAW264.7 cells assessed as TRAP+ multinucleated cells level incubated for 4 days by TRAP staining assay; assay type: functional, cell-based; details: RAW264.7, 96 h
Answer in µM, number only, no unit symbol.

Recorded results for 2 compounds are shown here.
>  <chemSmiles>
O=c1oc2ccccc2c(=O)n1-c1ccc(I)cc1F

>  <val>
4.9

$$$$
>  <chemSmiles>
O=C(Nc1ccc(Cl)cc1F)c1ccccc1O

>  <val>
10

$$$$

Now let's try a different one.
[Q] Assign IC50 to the following record: `O=c1oc2ccccc2c(=O)n1-c1ccc(Cl)cc1F`
[A] 7.1

###

test: Cytotoxicity against mouse RAW264.7 cells assessed as survival rate at 10 uM after 24 hrs by MTT assay; assay type: cell-based; details: read-out: Activity
reportedMetric: viability at 24 h, 10 µM (%)
Please reply with the bare figure in % and do not write the unit itself.

Solved entries:
>  <chemSmiles>
COc1ccc(C(=O)Nc2ccc(Cl)cc2F)c(OC)c1

>  <viability at 24 h, 10 µM / %>
52.9

$$$$
>  <chemSmiles>
COc1ccc(C(=O)O)c(O)c1

>  <viability at 24 h, 10 µM / %>
99.4

$$$$
>  <chemSmiles>
COc1ccc(C(=O)Nc2ccc(Cl)cc2F)c(O)c1

>  <viability at 24 h, 10 µM / %>
103

$$$$
>  <chemSmiles>
O=C(Nc1ccc(I)cc1F)c1ccccc1O

>  <viability at 24 h, 10 µM / %>
96.7

$$$$
>  <chemSmiles>
COc1ccccc1C(=O)Nc1ccc(I)cc1F

>  <viability at 24 h, 10 µM / %>
95.4

$$$$
>  <chemSmiles>
COc1ccc(C(=O)Nc2ccc(-c3ccc(F)cc3F)cc2F)c(O)c1

>  <viability at 24 h, 10 µM / %>
64.5

$$$$

[Q] # return recorded viability at 24 h, 10 µM for entry `COc1ccc(C(=O)Nc2ccc(F)cc2F)c(OC)c1`
[A] 102

[Q] Identify viability at 24 h, 10 µM associated with the compound `COc1ccc(C(=O)Nc2ccc(Cl)cc2F)c(OCc2ccc(F)cc2F)c1`
[A] 107

[Q] Retrieve viability at 24 h, 10 µM measured for `O=C(Nc1ccc(Cl)cc1F)c1ccccc1O` and print it.
[A] 93

[Q] Supply measured viability at 24 h, 10 µM of `O=C(Nc1ccc(I)cc1F)c1ccccc1` in your reply.
[A] 105

[Q] Find the measured viability at 24 h, 10 µM of `O=C(Nc1ccc(F)cc1F)c1ccccc1OCc1ccc(F)cc1F` and report it.
[A] 101

[Q] Please indicate viability at 24 h, 10 µM recorded for `O=C(Nc1ccc(Cl)cc1F)c1ccccc1`
[A] 105

[Q] # return recorded viability at 24 h, 10 µM for entry `COc1ccc2c(=O)n(-c3ccc(Cl)cc3F)c(=O)oc2c1`
[A] 100

[Q] Please supply the value of reported viability at 24 h, 10 µM for the item `COc1ccc(C(=O)Nc2ccc(I)cc2F)c(O)c1`
[A] 94.4

###

assay: Cytotoxicity against mouse RAW264.7 cells assessed as reduction in survival rate after 24 hrs by MTT assay; assay type: cell-based
This listing pairs compounds with measured CC50 at 24 h.

Below, each entry is followed by its recorded CC50 at 24 h result.
>  <chemSmiles>
COc1ccc2c(=O)n(-c3ccc(F)cc3F)c(=O)oc2c1

>  <CC50 at 24 h>
> 40 µM

$$$$
>  <chemSmiles>
O=c1oc2ccccc2c(=O)n1-c1ccc(F)cc1F

>  <CC50 at 24 h>
> 40 µM

$$$$
>  <chemSmiles>
COc1ccc(C(=O)Nc2ccc(F)cc2F)c(O)c1

>  <CC50 at 24 h>
> 40 µM

$$$$
>  <chemSmiles>
COc1ccc(C(=O)Nc2ccc(I)cc2F)c(O)c1

>  <CC50 at 24 h>
27.6 µM

$$$$
>  <chemSmiles>
O=C(O)c1ccccc1O

>  <CC50 at 24 h>
> 40 µM

$$$$
>  <chemSmiles>
COc1ccc(C(=O)Nc2ccc(Cl)cc2F)c(OC)c1

>  <CC50 at 24 h>
13.6 µM

$$$$
>  <chemSmiles>
COc1ccc(C(=O)Nc2ccc(I)cc2F)c(OCc2ccc(F)cc2F)c1

>  <CC50 at 24 h>
36.8 µM

$$$$
>  <chemSmiles>
O=C(Nc1ccc(I)cc1F)c1ccccc1

>  <CC50 at 24 h>
> 40 µM

$$$$
>  <chemSmiles>
COc1ccccc1C(=O)Nc1ccc(I)cc1F

>  <CC50 at 24 h>
> 40 µM

$$$$
>  <chemSmiles>
COc1ccc(C(=O)Nc2ccc(Cl)cc2F)c(O)c1

>  <CC50 at 24 h>
32.3 µM

$$$$

[Q] Please look at this compound and report its CC50 at 24 h: `O=C(Nc1ccc(-c2ccc(F)cc2F)cc1F)c1ccccc1O`
[A] 28.6 µM

[Q] Please list CC50 at 24 h recorded for the compound `O=C(Nc1ccc(I)cc1F)c1ccccc1OCc1ccc(F)cc1F`
[A] 32.6 µM
